Conditions: in methanol, 298.15 K
quantity_name: solubility (mole fraction)

Asked: Record request: solubility (mole fraction) value, item `NC(N)=S`
Given back: 0.0596

---

Settings: in acetone, 308.15 K
quantity_name: solubility (mole fraction)

Asked: Which value of solubility (mole fraction) has been reported for `NC(N)=S` in the records?
Given back: 0.042

---

Details: in ethyl acetate, 288.15 K
quantity_name: solubility (mole fraction)
API doc: respond with a numeric literal and nothing else, no unit.

Asked: // lookup solubility (mole fraction) for `NC(N)=S`
Given back: 0.00519

---

Conditions: in acetone, 288.15 K
quantity_name: solubility (mole fraction)
Reply with the value as a number alone.

Asked: Item under review: `NC(N)=S` . Reported solubility (mole fraction)?
Given back: 0.0364
